System Under Test: PSMA (Homo sapiens, UniProt Q04609)
Construct: endogenous in cells; host or cells: LNCaP cells
Sequence (Q04609 whole entry): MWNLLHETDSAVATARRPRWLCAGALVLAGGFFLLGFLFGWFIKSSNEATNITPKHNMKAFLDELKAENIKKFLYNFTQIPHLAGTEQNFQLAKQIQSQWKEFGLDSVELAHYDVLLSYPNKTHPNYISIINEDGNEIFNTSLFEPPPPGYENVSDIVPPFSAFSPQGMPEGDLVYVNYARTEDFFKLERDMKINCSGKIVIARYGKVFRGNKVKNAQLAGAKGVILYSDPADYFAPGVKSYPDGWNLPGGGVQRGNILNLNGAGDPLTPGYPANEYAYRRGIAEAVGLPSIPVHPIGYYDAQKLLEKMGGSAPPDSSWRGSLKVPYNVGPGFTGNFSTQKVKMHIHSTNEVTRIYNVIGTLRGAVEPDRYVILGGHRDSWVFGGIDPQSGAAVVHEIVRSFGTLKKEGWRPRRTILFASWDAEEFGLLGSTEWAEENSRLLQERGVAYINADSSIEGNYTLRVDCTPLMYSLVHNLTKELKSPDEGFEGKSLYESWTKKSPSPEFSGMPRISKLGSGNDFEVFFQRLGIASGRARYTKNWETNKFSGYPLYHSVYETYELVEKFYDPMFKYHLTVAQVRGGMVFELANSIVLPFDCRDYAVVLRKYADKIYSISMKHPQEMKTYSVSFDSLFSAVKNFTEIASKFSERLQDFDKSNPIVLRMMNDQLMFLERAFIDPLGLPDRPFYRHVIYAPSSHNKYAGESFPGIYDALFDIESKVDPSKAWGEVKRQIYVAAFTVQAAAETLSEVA
Assay Procedure: Competitive binding studies on LNCaP cells vs ([125I]BA)KuE (affinity, IC50)
Experimental Conditions: 1 h, 4° C., natLu complexes, n=3
Experimental: Competitive binding studies were determined on LNCaP cells (1.5×10^5 cells in 1 mL/well) after incubation at 4° C. for 1 h, using (((S)-1-carboxy-5-(4-([^125I]iodo)benzamido)pentyl)carbamoyl)-L-glutamic acid ([^125I]BA)KuE; 0.2 nM/well) as reference radioligand (n=3). Internalization studies of the radiolabeled ligands (1.0 nM/well) were performed on LNCaP cells (1.25×10^5 cells in 1 mL/well) at 37° C. for 1 h and accompanied by ([^125I]BA)KuE (0.2 nM/well), as reference. […]
IC50 by entry:
Show the value, then the unit it is measured in.

INSERT INTO measurements (molecule, result) VALUES
  ('O=C([O-])CN1CCN(CC(=O)[O-])CCN(C(CCC(=O)N[C@H](Cc2ccc(O)c(I)c2)C(=O)N[C@H](Cc2ccccc2)C(=O)N[C@H](CCCCNC(=O)CCCCCCC(=O)NCCCC[C@H](NC(=O)N[C@@H](CCC(=O)O)C(=O)O)C(=O)O)C(=O)O)C(=O)O)CCN(CC(=O)[O-])CC1.[Lu+3] (stereo partly drawn) [[^177Lu]PSMA I&T]', '4.17 nM'),
  ('CC(C)(C)[Si](F)(c1ccc(C(=O)NC[C@H](NC(=O)CC[C@@H](C(=O)O)N2CCN(CC(=O)[O-])CCN(CC(=O)[O-])CCN(CC(=O)[O-])CC2)C(=O)N[C@H](CCCCNC(=O)CCC(=O)NCCC[C@@H](NC(=O)CC[C@H](NC(=O)N[C@@H](CCC(=O)O)C(=O)O)C(=O)O)C(=O)O)C(=O)O)cc1)C(C)(C)C.[Lu+3] [[^177Lu, ^19F]rhPSMA-7.4]', '3.06 nM');

Please look at the following molecule next.
Problem: IC50 for CC(C)(C)[Si](F)(c1ccc(C(=O)NC[C@H](NC(=O)CC[C@H](C(=O)O)N2CCN(CC(=O)[O-])CCN(CC(=O)[O-])CCN(CC(=O)[O-])CC2)C(=O)N[C@H](CCCCNC(=O)CCC(=O)NCCC[C@@H](NC(=O)CC[C@H](NC(=O)N[C@@H](CCC(=O)O)C(=O)O)C(=O)O)C(=O)O)C(=O)O)cc1)C(C)(C)C.[Lu+3] [[^177Lu, ^19F]rhPSMA-7.2] ?
Solution: 2.88 nM
